measurementProtocol: chemical genetic growth profiling, strain panel (AID 1159580);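 further: tested at 20 µM; growth read once vehicle control cultures reached saturation at 30 °C; 1 = growth at the plate median or of vehicle wells; lower values mean less growth of the strain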
testContext: S. cerevisiae deletion strains, growth OD, locus YDR137W, strain rgp1, active compounds read low
Screen size: about 5,500 compounds; about 2,000 (36%) were called active. About 18% were inconclusive and are not listed. The list shows a part of the results.
metricName: normalized growth

Solved cases (10 shown):
- COC1=CC(=O)C=C(OC)C1=O: 0.88 (inactive)
- NC[C@@H]1O[C@H](O[C@@H]2[C@@H](CO)OC(O[C@@H]3[C@@H](O)[C@H](N)C[C@H](N)[C@H]3O[C@H]3O[C@H](CO)[C@@H](O)[C@H](O)[C@H]3N)[C@@H]2O)[C@H](N)[C@@H](O)[C@@H]1O (stereo not given in full): 1.01 (inactive)
- COc1ccc(-c2cc(=O)c3c(O)cc(O)cc3o2)cc1: 0.87 (inactive)
- CC1=CC(=O)C(C(C)C)=CC1=O: 0.665 (active)
- CN[C@H]1CC[C@@H](c2ccc(Cl)c(Cl)c2)c2ccccc21: 1.29 [resistant] (active)
- COc1ccc(-c2cc(=O)c3c(O)c(OC)c(O[C@H]4O[C@H](CO[C@@H]5O[C@@H](C)[C@H](O)[C@@H](O)[C@H]5O)[C@@H](O)[C@H](O)[C@H]4O)cc3o2)cc1: 1.05 (inactive)
- C[C@H]1O[C@@H](O[C@H]2[C@@H](O)C[C@H](O[C@H]3[C@@H](O)C[C@H](O[C@H]4CC[C@]5(C)C6CC[C@]7(C)[C@@H](C8=CC(=O)OC8)CC[C@]7(O)C6CC[C@@H]5C4)O[C@@H]3C)O[C@@H]2C)C[C@H](O)[C@@H]1O (stereo not given in full): 0.976 (inactive)
- NC(=O)c1cc([N+](=O)[O-])cc([N+](=O)[O-])c1: 1.25 [resistant] (active)
- Cc1ncc(CO)c(CO)c1O: 1.03 (inactive)
- COc1cc(-c2cc(=O)c3c(O)c(OC)c(OC)c(OC)c3o2)cc(OC)c1OC: 0.997 (inactive)

Alright, here's another molecule for you.
So what does the record say about normalized growth for `Cc1cc(N)c2ccccc2[n+]1CCCCCCCCCC[n+]1c(C)cc(N)c2ccccc21` ?
0.0886 (active)

Reference for the values: PubChem BioAssay AID1159580
